tested on: SF-295 CNS; assay: NCI tumour cell line growth inhibition, 48 h
assay metric: TGI

> print(dat)
                                   molecule  assay.metric  data.value
1  O=c1ccn(C2OC(CN(O)CCC3C(CO)OC(n4ccc(=O)[nH]c4=O)C3O)C(O)C2O)c(=O)[nH]1 (stereo not drawn)           TGI    > 100 µM
2              COc1cc2oc(=O)ccc2cc1CC=C(C)C           TGI    > 100 µM
3  CCOC(OC1=C(C#N)CCCC1)C(C)[Se]c1ccccc1 (stereo not drawn)           TGI    > 100 µM
